# reported Tm average overall; entries follow
Target: PmSiaT (Proteus mirabilis, UniProt B4EZY7)
Construct: made in house
Sequence (B4EZY7 whole entry): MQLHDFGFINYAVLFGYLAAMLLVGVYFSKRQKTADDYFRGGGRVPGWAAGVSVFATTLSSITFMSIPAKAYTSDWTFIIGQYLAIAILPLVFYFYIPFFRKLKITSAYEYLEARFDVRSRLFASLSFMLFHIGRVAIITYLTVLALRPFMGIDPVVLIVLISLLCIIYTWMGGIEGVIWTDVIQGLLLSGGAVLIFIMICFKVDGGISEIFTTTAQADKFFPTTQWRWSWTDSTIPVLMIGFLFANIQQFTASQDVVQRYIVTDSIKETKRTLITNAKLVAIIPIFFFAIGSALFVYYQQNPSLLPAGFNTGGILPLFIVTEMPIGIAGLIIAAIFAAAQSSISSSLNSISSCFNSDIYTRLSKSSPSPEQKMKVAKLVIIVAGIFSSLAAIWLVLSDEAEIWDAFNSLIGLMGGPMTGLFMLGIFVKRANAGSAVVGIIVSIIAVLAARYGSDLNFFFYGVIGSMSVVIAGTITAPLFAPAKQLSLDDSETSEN
Assay: nanoDSF thermal shift assay, PmSiaT
Assay type: binding
Conditions: PmSiaT, three experiments, 1.25 mM
Procedure: Nano-differential scanning fluorimetry (nanoDSF) is a high-throughput method that relies on the thermal stabilization of the folded protein state by a bound ligand.[33] The melting points of protein–inhibitor complexes were measured on a Prometheus NT.48 instrument from NanoTemper Technologies. […] The fluorescence was recorded at 330 and 350 nm and as a ratio of the two wavelengths. […] The melting temperatures have been measured in 3 separate experiments. […] This is calculated from Average 1. […]
Report only the number, with the unit °C understood.

Use the examples below as a reference point.
Molecule: O=C(CO)N[C@H]1[C@H]([C@H](O)[C@H](O)CO)OC(O)(C(=O)O)C[C@@H]1O (stereo partly shown) [Neu5Gc, 5-N-glycolyl neuraminic acid, reference compound]
Tgt: PmSiaT (Proteus mirabilis, UniProt B4EZY7)
Tm average overall / °C: 48.0
--
Molecule: CC(=O)NC1C(O)CC(O)(C(=O)O)OC1C(O)C(O)CCl (stereo not shown)
Tgt: PmSiaT (Proteus mirabilis, UniProt B4EZY7)
Tm average overall / °C: 47.9
--
Molecule: O=C(CF)NC1C(O)CC(O)(C(=O)O)OC1C(O)C(O)CO (stereo not shown)
Tgt: PmSiaT (Proteus mirabilis, UniProt B4EZY7)
Tm average overall / °C: 47.5

Would you mind telling me what Tm average overall value was observed for CC(C)(C)C(=O)NC1C(O)CC(O)(C(=O)O)OC1C(O)C(O)CO (stereo not shown) ?
46.6

Would you mind telling me what Tm average overall value was observed for CC(=O)NC1C(O)CC(O)(C(=O)O)OC1C(O)C(O)CBr (stereo not shown) ?
47.2

Would you mind telling me what Tm average overall value was observed for CCC(=O)NC1C(O)CC(O)(C(=O)O)OC1C(O)C(O)CO (stereo not shown) ?
46.8

Would you mind telling me what Tm average overall value was observed for CC(=O)N[C@H]1[C@H]([C@H](O)[C@H](O)CO)OC(O)(C(=O)O)C[C@@H]1O (stereo partly shown) [Neu5Ac, 5-N-acetyl neuraminic acid, reference compound] ?
49.1

Would you mind telling me what Tm average overall value was observed for CC(=O)N[C@H]1[C@H]([C@H](O)[C@H](O)CO)OC(C(=O)O)=C[C@@H]1O [Compound 9, reference compound] ?
46.1

Would you mind telling me what Tm average overall value was observed for CSCC(O)C(O)C1OC(O)(C(=O)O)CC(O)C1NC(C)=O (stereo not shown) ?
46.1

Would you mind telling me what Tm average overall value was observed for CC(=O)NC1C(OCc2cc(F)cc(F)c2)CC(O)(C(=O)O)OC1C(O)C(O)CO (stereo not shown) ?
56.0

Would you mind telling me what Tm average overall value was observed for O=C(CCl)NC1C(O)CC(O)(C(=O)O)OC1C(O)C(O)CO (stereo not shown) ?
49.7
